Cited source: the Immune Epitope Database (IEDB)

biological target: HLA-A*01:01; experiment: IEDB peptide-MHC binding, purified MHC/competitive/fluorescence; bounds were set here for any values at or beyond the usual limits of such assays; conditions: source organism: Influenza A virus
MEASUREMENT TYPE: IC50 (µM)
Numbers only here, please. The scale is µM.

Result for TFEFTSFFY , tested on HLA-A*01:01, IC50: 12

* * *

molecular target: HLA-B*40:02; test: IEDB peptide-MHC binding, purified MHC/competitive/radioactivity; bounds were set here for any values at or beyond the usual limits of such assays; conditions: source organism: Influenza A virus
pIC50: −log10 of the molar value.
Label 1.0 when pIC50 is at or above 7; otherwise label 0.0.

For this sequence, is measured pIC50 7 or higher? FESKSMKL 0.0

For this sequence, is measured pIC50 7 or higher? AESRKLLLI 0.0

New cases:
For this sequence, is measured pIC50 7 or higher? AEIMKICST 1.0

* * *

# IC50 per entry
target: HLA-B*40:01; assay: IEDB peptide-MHC binding, purified MHC/competitive/fluorescence; bounds were set here for any values at or beyond the usual limits of such assays; conditions: source organism: Influenza A virus
Numbers only here, please. The scale is µM.

Result for FEDLRVSSF , tested on HLA-B*40:01, IC50: 13

Result for AEIMKICST , tested on HLA-B*40:01, IC50: 34.2

* * *

# pIC50 per entry
target: HLA-A*02:06; test: IEDB peptide-MHC binding, purified MHC/competitive/fluorescence; bounds were set here for any values at or beyond the usual limits of such assays; conditions: source organism: Influenza A virus
# pIC50: negative log10 of molar concentration; output just the value

Answered examples (5):
Summary for this sequence, ILSPLTKGIL : pIC50 is 4.58

Summary for this sequence, RTMAWTVVNSI : pIC50 is 5.35

Summary for this sequence, GLIYNRMGA : pIC50 is 4.59

Summary for this sequence, LLFLKVPA : pIC50 is 4.88

Summary for this sequence, ALQLLLEV : pIC50 is 5.66

New cases:
Summary for this sequence, ITFMQALQLL : pIC50 is 5.09

Summary for this sequence, QLMWALGENMA : pIC50 is 4.61

* * *

target: HLA-A*02:01; experiment: IEDB peptide-MHC binding, purified MHC/competitive/radioactivity; bounds were set here for any values at or beyond the usual limits of such assays; settings: source organism: Influenza A virus
# pIC50 per entry
# pIC50: negative log10 of molar concentration; output just the value

Summary for this sequence, ALQLLLEV : pIC50 is 6.18

Summary for this sequence, FSMELPSFGV : pIC50 is 8.02

Summary for this sequence, FNMLSTVLGV : pIC50 is 7.82

* * *

target: HLA-A*02:03; assay: IEDB peptide-MHC binding, purified MHC/competitive/radioactivity; bounds were set here for any values at or beyond the usual limits of such assays; conditions: source organism: Influenza A virus
Decide using IC50 alone. Strictly below 300 nM: Fulfilled. Equal to or above 300 nM: Not fulfilled.

# count of solved cases: 2
Determine whether this sequence shows IC50 lower than 300 nM (ties excluded): FVEALARSI Not fulfilled

Determine whether this sequence shows IC50 lower than 300 nM (ties excluded): ILGFVFTL Fulfilled

New cases:
Determine whether this sequence shows IC50 lower than 300 nM (ties excluded): GLIYNRMGA Fulfilled

Determine whether this sequence shows IC50 lower than 300 nM (ties excluded): RTMAWTVVNSI Fulfilled

Determine whether this sequence shows IC50 lower than 300 nM (ties excluded): QIAILVTTV Fulfilled

Determine whether this sequence shows IC50 lower than 300 nM (ties excluded): LLFLKVPA Fulfilled

Determine whether this sequence shows IC50 lower than 300 nM (ties excluded): ITFMQALQLL Not fulfilled

Determine whether this sequence shows IC50 lower than 300 nM (ties excluded): ALQLLLEV Fulfilled

Determine whether this sequence shows IC50 lower than 300 nM (ties excluded): ILSPLTKGIL Fulfilled

Determine whether this sequence shows IC50 lower than 300 nM (ties excluded): QLVWMACHSAA Not fulfilled

* * *

# IC50 per entry
target: HLA-A*33:01; experiment: IEDB peptide-MHC binding, purified MHC/competitive/radioactivity; bounds were set here for any values at or beyond the usual limits of such assays; details: source organism: Influenza A virus
Numbers only here, please. The scale is nM.

Result for SFSFGGFTFK , tested on HLA-A*33:01, IC50: 168

Result for RMVLSAFDER , tested on HLA-A*33:01, IC50: 897

* * *

target: HLA-B*44:03; assay: IEDB peptide-MHC binding, purified MHC/competitive/fluorescence; bounds were set here for any values at or beyond the usual limits of such assays; details: source organism: Influenza A virus
pIC50: −log10 of the molar value.
Label label 1 when pIC50 is at or above 5; otherwise label label 0.

For this sequence, is measured pIC50 5 or higher? CEKLEQSGL label 1

New cases:
For this sequence, is measured pIC50 5 or higher? FESKSMKL label 0

For this sequence, is measured pIC50 5 or higher? YERMCNILKG label 1

* * *

# pIC50 per entry
target: HLA-A*03:01; test: IEDB peptide-MHC binding, purified MHC/competitive/radioactivity; bounds were set here for any values at or beyond the usual limits of such assays; conditions: source organism: Influenza A virus
# pIC50: negative log10 of molar concentration; output just the value

Summary for this sequence, TLARSICEK : pIC50 is 6.90

Summary for this sequence, SFSFGGFTFK : pIC50 is 6.73

Consider the additional sequence presented here.
Summary for this sequence, KTRPILSPLTK : pIC50 is 7.02

* * *

target: HLA-B*40:02; assay: IEDB peptide-MHC binding, purified MHC/competitive/fluorescence; bounds were set here for any values at or beyond the usual limits of such assays; settings: source organism: Influenza A virus
MEASUREMENT TYPE: IC50 (nM)
Numbers only here, please. The scale is nM.

Summary for this sequence, AEKPKFLPDLY : IC50 is 4780

Summary for this sequence, CELTDSSWI : IC50 is 1410

Consider the additional sequence presented here.
Summary for this sequence, FEDLRVSSF : IC50 is 1320

* * *

target: HLA-A*26:01; assay: IEDB peptide-MHC binding, purified MHC/competitive/radioactivity; bounds were set here for any values at or beyond the usual limits of such assays; conditions: source organism: Influenza A virus
MEASUREMENT TYPE: IC50

Result for TFEFTSFFY , tested on HLA-A*26:01, IC50: 399 nM

* * *

target: HLA-A*24:02; assay: IEDB peptide-MHC binding, purified MHC/competitive/radioactivity; bounds were set here for any values at or beyond the usual limits of such assays; conditions: source organism: Influenza A virus
MEASUREMENT TYPE: IC50 (nM)
Numbers only here, please. The scale is nM.

Summary for this sequence, LYRKLKREITF : IC50 is 206

Summary for this sequence, SWPDGAELPF : IC50 is 778

* * *

target: HLA-A*68:02; test: IEDB peptide-MHC binding, purified MHC/competitive/radioactivity; bounds were set here for any values at or beyond the usual limits of such assays; conditions: source organism: Influenza A virus
MEASUREMENT TYPE: IC50 (nM)
Numbers only here, please. The scale is nM.

Summary for this sequence, FVEALARSI : IC50 is 984

New cases:
Summary for this sequence, ITFMQALQLL : IC50 is 759

* * *

target: HLA-B*18:01; assay: IEDB peptide-MHC binding, purified MHC/competitive/fluorescence; bounds were set here for any values at or beyond the usual limits of such assays; settings: source organism: Influenza A virus
# pIC50 per entry
# pIC50: negative log10 of molar concentration; output just the value

Summary for this sequence, FESKSMKL : pIC50 is 5.60

Summary for this sequence, AESRKLLLI : pIC50 is 4.48

Summary for this sequence, AEIMKICST : pIC50 is 4.55

Summary for this sequence, AEKPKFLPDLY : pIC50 is 4.46

New cases:
Summary for this sequence, CEKLEQSGL : pIC50 is 4.37

Summary for this sequence, CELTDSSWI : pIC50 is 4.25

* * *

biological target: HLA-A*02:02; assay: IEDB peptide-MHC binding, purified MHC/competitive/radioactivity; bounds were set here for any values at or beyond the usual limits of such assays; settings: source organism: Influenza A virus
# IC50 per entry
Numbers only here, please. The scale is nM.

Summary for this sequence, RTMAWTVVNSI : IC50 is 126

Summary for this sequence, FVEALARSI : IC50 is 35

Summary for this sequence, ILSPLTKGIL : IC50 is 159

Summary for this sequence, ITFMQALQLL : IC50 is 125

Summary for this sequence, QLMWALGENMA : IC50 is 357

Summary for this sequence, LLFLKVPA : IC50 is 133

Summary for this sequence, QIAILVTTV : IC50 is 150

Summary for this sequence, ILGFVFTL : IC50 is 2.6
